- Test system: Danio rerio larvae (5 dpf)
- PROTOCOL_TEXT: difference in activity during first hour vs DMSO (percentage points); higher = more activity than DMSO
- CONDITION_DETAILS: 10 µM; exposure time 6 h
Counter-ions that a name gives are not always drawn.
PARAMETER: difference in activity during first hour
Form rule: numeric answer, no unit written next to it.

Recorded difference in activity during first hour, per entry:
• CN(C)CCOC(=O)C(c1ccccc1)C1(O)CCCC1 (centres undefined) [Cyclopentolate (hydrochloride)] = -7.59
• CC(CN1c2ccccc2Sc2ccccc21)N(C)C (centres undefined) [Promethazine (hydrochloride)] = 16.6
• NS(=O)(=O)c1cc2c(cc1Cl)N=CNS2(=O)=O [Chlorothiazide] = 3.22

// moving on: another record for difference in activity during first hour
What value of difference in activity during first hour has been reported for the following compound? CC(CCc1ccc(O)cc1)NCCc1ccc(O)c(O)c1 (centres undefined) [Dobutamine (hydrochloride)]
-2.65

====

- Tested on: Danio rerio larvae (5 dpf)
- PROTOCOL_TEXT: difference in combined optomotor response to red, green and blue moving lines vs DMSO (percentage points); higher = stronger optomotor response than DMSO
- CONDITION_DETAILS: 10 µM; exposure time 6 h
Label MET for high-side difference (at or above -3) and NOT MET for low-side difference (below it).

Please indicate if the recorded difference for Nc1ccn([C@@H]2O[C@H](CO)[C@@H](O)[C@@H]2O)c(=O)n1 meets or exceeds -3.
MET

Please indicate if the recorded difference for OCCN1CCN(CCCN2c3ccccc3Sc3ccc(Cl)cc32)CC1 meets or exceeds -3.
MET

Please indicate if the recorded difference for COC(=O)[C@H]1[C@H]2C[C@@H]3c4[nH]c5cc(OC)ccc5c4CCN3C[C@H]2C[C@@H](OC(=O)c2cc(OC)c(OC)c(OC)c2)[C@@H]1OC meets or exceeds -3.
NOT MET

Please indicate if the recorded difference for CCCC1O[C@@H]2C[C@H]3[C@@H]4CCC5=CC(=O)C=C[C@]5(C)[C@H]4[C@@H](O)C[C@]3(C)[C@]2(C(=O)CO)O1 (some centres undefined) [Budesonide] meets or exceeds -3.
MET

Please indicate if the recorded difference for O=C1[C@@H]2[C@H]3CC[C@H](C3)[C@@H]2C(=O)N1C[C@@H]1CCCC[C@H]1CN1CCN(c2nsc3ccccc23)CC1 meets or exceeds -3.
NOT MET

Please indicate if the recorded difference for CCC(=O)OCC(=O)[C@@]1(OC(=O)CC)[C@H](C)C[C@H]2[C@H]3[C@H]([C@@H](O)C[C@@]21C)[C@@]1(C)C=CC(=O)C=C1C[C@H]3Cl [Alclometasone Dipropionate] meets or exceeds -3.
MET

Please indicate if the recorded difference for Nc1ccn([C@@H]2CS[C@H](CO)O2)c(=O)n1 meets or exceeds -3.
MET

Please indicate if the recorded difference for CC(=O)O[C@]1(C(C)=O)CC[C@H]2[C@@H]3C[C@H](C)C4=CC(=O)CC[C@]4(C)[C@H]3CC[C@@]21C [Medroxyprogesterone 17-acetate] meets or exceeds -3.
NOT MET

Please indicate if the recorded difference for CN1C(CCl)Nc2cc(Cl)c(S(N)(=O)=O)cc2S1(=O)=O (centres undefined) [Methyclothiazide] meets or exceeds -3.
MET

Please indicate if the recorded difference for CC(C)Cn1cnc2c(N)nc3ccccc3c21 meets or exceeds -3.
NOT MET

Please indicate if the recorded difference for Cc1ccccc1N1C(=O)c2cc(S(N)(=O)=O)c(Cl)cc2NC1C (centres undefined) meets or exceeds -3.
MET

====

- System: Danio rerio larvae (5 dpf)
- PROTOCOL_TEXT: difference in activity during first hour vs DMSO (percentage points); higher = more activity than DMSO
- CONDITION_DETAILS: 10 µM; exposure time 6 h
Structures can show the parent of a compound that is named as a salt.
Overview of reported difference in activity during first hour across a group of molecules:
Form rule: numeric answer, no unit written next to it.

Recorded difference in activity during first hour, per entry:
• OCCN(CCO)c1nc(N2CCCCC2)c2nc(N(CCO)CCO)nc(N3CCCCC3)c2n1 = 10.2
• COc1cc(NC(C)CCCN)c2ncccc2c1 (stereo unspecified) [Primaquine (phosphate)] = 2.45
• CC1(C)O[C@@H]2[C@@H](CO[C@@]3(COS(N)(=O)=O)OC(C)(C)O[C@@H]23)O1 [Topiramate] = -1.72
• C=C1[C@H](CO)[C@@H](O)C[C@@H]1n1cnc2c(=O)[nH]c(N)nc21 [Entecavir (hydrate)] = -1.96
• CCN(CC)CC#CCOC(=O)C(O)(c1ccccc1)C1CCCCC1 (stereo unspecified) [Oxybutynin (hydrochloride)] = -11.4
• CC(C)Cn1cnc2c(N)nc3ccccc3c21 = -15

What value of difference in activity during first hour has been reported for the following molecule? CC(COc1ccccc1)N(CCCl)Cc1ccccc1 (stereo unspecified) [Phenoxybenzamine (hydrochloride)]
18.5

What value of difference in activity during first hour has been reported for the following molecule? CC[C@H](C)C(=O)O[C@H]1C[C@@H](C)C=C2C=C[C@H](C)[C@H](CC[C@@H]3C[C@@H](O)CC(=O)O3)[C@H]21
7.75

What value of difference in activity during first hour has been reported for the following molecule? Cn1c(=O)cc(N2CCC[C@@H](N)C2)n(Cc2ccccc2C#N)c1=O [Alogliptin (benzoate salt)]
10.7

What value of difference in activity during first hour has been reported for the following molecule? NC(=O)[C@@H]1CC[C@@H]2CN1C(=O)N2OS(=O)(=O)O [Avibactam (sodium salt)]
5.58

What value of difference in activity during first hour has been reported for the following molecule? CN(C)CC[C@@H](c1ccc(Cl)cc1)c1ccccn1 [Dexchlorpheniramine (maleate)]
-18.8

What value of difference in activity during first hour has been reported for the following molecule? CCCNCC(O)COc1ccccc1C(=O)CCc1ccccc1 (stereo unspecified) [Propafenone (hydrochloride)]
8.84

What value of difference in activity during first hour has been reported for the following molecule? CCOc1ccc2ccccc2c1C(=O)N[C@@H]1C(=O)N2[C@@H]1SC(C)(C)[C@@H]2C(=O)O [Nafcillin (sodium salt hydrate)]
19.4

====

- System: Danio rerio larvae (5 dpf)
- PROTOCOL_TEXT: difference in habituation to acoustic stimuli vs DMSO (percentage points); higher = more habituation than DMSO
- CONDITION_DETAILS: 10 µM; exposure time 6 h
Counter-ions that a name gives are not always drawn.
Overview of reported difference in habituation to acoustic stimuli across a group of compounds:
Form rule: numeric answer, no unit written next to it.

Recorded difference in habituation to acoustic stimuli, per entry:
- CCCN[C@H]1CCc2nc(N)sc2C1 [(S)-Pramipexole (hydrochloride)]: 5.7
- Cc1c(OCC(F)(F)F)ccnc1C[S@@+]([O-])c1nc2ccccc2[nH]1 [(R)-Lansoprazole]: -1.38
- O=c1[nH]c(=O)n([C@H]2C[C@H](O)[C@@H](CO)O2)cc1F [Floxuridine]: -3.55

// moving on: another record for difference in habituation to acoustic stimuli
What value of difference in habituation to acoustic stimuli has been reported for the following compound? Nc1ccc(S(=O)(=O)c2ccc(N)cc2)cc1 [Dapsone]
2.23

====

- Tested on: Danio rerio larvae (5 dpf)
- PROTOCOL_TEXT: difference in activity during first hour vs DMSO (percentage points); higher = more activity than DMSO
- CONDITION_DETAILS: 10 µM; exposure time 6 h
Counter-ions that a name gives are not always drawn.
Overview of reported difference in activity during first hour across a group of molecules:
Form rule: numeric answer, no unit written next to it.

Recorded difference in activity during first hour, per entry:
• CC/C(=C(\c1ccccc1)c1ccc(OCCN(C)C)cc1)c1ccccc1 [Tamoxifen (citrate)] = 14.8
• CCOC(=O)C1=C[C@@H](OC(CC)CC)[C@H](NC(C)=O)[C@@H](N)C1 [Oseltamivir (phosphate)] = 8.28
• N#CC[C@H](C1CCCC1)n1cc(-c2ncnc3[nH]ccc23)cn1 [Ruxolitinib (phosphate)] = 6.14

What value of difference in activity during first hour has been reported for the following molecule? OC(c1cc(C(F)(F)F)nc2c(C(F)(F)F)cccc12)C1CCCCN1 (configuration not stated) [Mefloquine (hydrochloride)]
-1.02

What value of difference in activity during first hour has been reported for the following molecule? CCC(=O)NCC[C@@H]1CCc2ccc3c(c21)CCO3
-13.3

What value of difference in activity during first hour has been reported for the following molecule? CCCc1c2oc(C(=O)O)cc(=O)c2cc2c(=O)cc(C(=O)O)n(CC)c12 [Nedocromil (sodium salt)]
-6.98

What value of difference in activity during first hour has been reported for the following molecule? COCC(=O)Nc1c(I)c(C(=O)NCC(O)CO)c(I)c(C(=O)N(C)CC(O)CO)c1I (configuration not stated) [Iopromide]
11.3

What value of difference in activity during first hour has been reported for the following molecule? CCCSc1ccc2[nH]c(NC(=O)OC)nc2c1
4.4

This collection of values is drawn from the supplement of paper PMC10515830.
